Biological target: insulin subtype B receptor (IR-B) (Homo sapiens, UniProt P06213)
Assay: Insulin subtype B receptor phosphorylation, receptor transfected HEK293 cells
Type: cell-based
Parameters: expressed in transfected cells; host or cells: HEK293
Conditions: read-out: EC50 values (in nM), phosphorylation at the insulin subtype B receptor; experiment of FIG. 18B
readout_type: EC50 (nM)
I only need the number, in nM, no unit after it.

molecule: DP22LysC: DP22 cleaved at the lysine of CTP to produce a two chain insulin (protein) chain 1: APPPSLPSPSRLPGPSDTPILPQEEEEERGPEHLCGAHLVDALYLVCGDRGFYSSSSRAPPPSLPSPSRLPGPSDTPILPQK chain 2: GIVDECCHRSCDLRRLENYCN
readout_type: EC50
test_result: 1.88

molecule: DP22: CTP-E5R-B chain-CTP(K)-A Chain (SEQ ID NO: 91) (protein, single chain insulin analog) MGSSSSKAPPPSLPSPSRLPGPSDTPILPQEEEEERGPEHLCGAHLVDALYLVCGDRGFYSSSSRAPPPSLPSPSRLPGPSDTPILPQKGIVDECCHRSCDLRRLENYCN
readout_type: EC50
test_result: 18.3

Item GEEEEEKGPEHLCGAHLVDALYLVCGDRGFYSSSSRAPPPSLPSPSRLPGPSD TPILPQKGIVDECCHRSCDLRRLENYCN (protein, listed as Homo sapiens) GEEEEEKGPEHLCGAHLVDALYLVCGDRGFYSSSSRAPPPSLPSPSRLPGPSDTPILPQKGIVDECCHRSCDLRRLENYCN has what recorded EC50?
10.6

Next entry: DP20LysC: DP20 cleaved at the lysine of CTP to produce a two chain insulin (protein) chain 1: GPEHLCGAHLVDALYLVCGDRGFYSSSSRAPPPSLPSPSRLPGPSDTPILPQK chain 2: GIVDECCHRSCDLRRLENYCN
2.44
